Cited source: paper PMC6944458

Each record here notes measured MIC FQ res.
Tested on: Fluoroquinolone resistant strain derived from H37Rv Mtb, gyrA mutant (D94N)
Assay type: cell-based, Mycobacterium tuberculosis

- compoundStructureString: "Cc1cn2c(C(=O)NCc3ccc(N4CCS(=O)(=O)CC4)c(F)c3)c(C)nc2s1"
  MIC FQ res, µM: 3.2
- compoundStructureString: "CCc1nc2ccc(Cl)cn2c1C(=O)NCc1ccc(N2CCC(c3ccc(OC(F)(F)F)cc3)CC2)cc1"
  MIC FQ res, µM: 0.0058
- compoundStructureString: "C[C@H]1COc2c(N3CCN(C)CC3)c(F)cc3c(=O)c(C(=O)O)cn1c23"
  MIC FQ res, µM: 91
- compoundStructureString: "Cc1cn2c(C(=O)NCc3ccc(N4CCN(c5ccc(C(F)(F)F)cn5)CC4)c(F)c3)c(C)nc2s1"
  MIC FQ res, µM: 0.010
